Experiment: gradient 5% acetonitrile 3 min, to 50% in 2 min, to 85% in 15 min, held 3 min, 100 µL/min
Details: column: Zorbax Extend-C18 2.1 x 50 mm; eluents: water / acetonitrile, 0.1% formic acid
Hi! Could you tag entries with RP-LC retention time below 700 s as 1.0, and those at or above as 0.0? Much appreciated.

O=c1c2cc3c(cc2nc(SCc2nc(-c4ccc(F)cc4)no2)n1CC1CCCO1)OCO3 (centres undefined): 0.0
Cc1ccc(C(=O)Nc2cnc(N3CCCCC3)nc2)s1: 0.0
Cn1nccc1C(=O)N1CCC(c2noc(-c3ccncc3)n2)C1 (centres undefined): 1.0
CCOC(=O)Cn1c(=O)c2c(nc3n2CC(C)CN3c2ccc(OCC)cc2)n(C)c1=O (centres undefined): 0.0
COc1ccc(CCNS(=O)(=O)c2cccc3cccnc23)cc1OC: 0.0
O=C(CSc1nnc2c3cc(-c4ccc(F)cc4)nn3ccn12)Nc1ccc(F)cc1F: 0.0

====

Test: gradient 5% acetonitrile 3 min, to 50% in 2 min, to 85% in 15 min, held 3 min, 100 µL/min
Details: column: Zorbax Extend-C18 2.1 x 50 mm; eluents: water / acetonitrile, 0.1% formic acid
measured-attribute: RP-LC retention time (s)

CC(NC(=O)c1cc(=O)[nH]c2ccc(Br)cc12)c1ccccc1 (stereo not given): 769
Cc1csc(-c2ccc(CNC(=O)c3ccoc3)cc2)n1: 781
O=S(=O)(CCCOc1ccc(F)cc1)NCC1CCCO1 (stereo not given): 763
O=S(=O)(c1ccccc1)c1cnc2c(N3CCNCC3)cccc2c1: 691
Cc1ccc(Cn2nnc3cc(C(=O)N4CCN(c5ncccn5)CC4)ccc32)cc1: 822

====

Below, each of the compounds is paired with its reported RP-LC retention time value.
Assay: gradient 5% acetonitrile 3 min, to 50% in 2 min, to 85% in 15 min, held 3 min, 100 µL/min
Conditions: column: Zorbax Extend-C18 2.1 x 50 mm; eluents: water / acetonitrile, 0.1% formic acid
measured-attribute: RP-LC retention time (s)

Cc1ccc(CNC(=O)c2ccc3c(c2)CNCCO3)cc1: 617
COc1ccc(NC(=O)Cn2cnc3c(sc4nc(-c5ccccc5)ccc43)c2=O)cc1OC: 899
CCN(CC)c1ccc(CNC(=O)C2CCc3nc(N4CCOCC4)ncc3C2)cc1 (stereo not given): 588
COc1ccc(NC(=O)CCc2c(C)nn(-c3cc(N(C)C)ncn3)c2C)cc1Cl: 822
COc1cc(NC(=O)N2CCN(c3ccc(=O)n(-c4ccc(C)c(C)c4)n3)CC2)cc(OC)c1OC: 775
Cc1cc(C)cc(N2CCC(NC(=O)c3ccc(C#N)cc3)C2=O)c1 (stereo not given): 854
Cc1ccc(NC(=O)N2CCC(n3cnc4ccccc4c3=O)CC2)c(C)c1: 751
CC(C)CN1CCn2cc(C(=O)NCC3CCCCC3)nc2C1: 634
CCOc1ccc(-c2noc(Cc3nnc(-c4ccc(F)cc4)o3)n2)cc1: 1050
O=C1CC(c2noc(-c3ccc4c(c3)OCO4)n2)CN1c1ccc(F)c(Cl)c1 (stereo not given): 1010
CCCCN(C)c1ccc(NC(=O)Cc2cccs2)c(C(=O)O)c1: 759
CC(C)(C)C(=O)N1CCCC1c1nc2ccccc2s1 (stereo not given): 932
COc1cccc(Sc2ccc(N3CCC(C(=O)N4CCN(c5ccccn5)CC4)CC3)nn2)c1: 616
COCCCn1c(C)cc(C(=O)NCC2Cn3cccc3C(=O)N2C)c1C (stereo not given): 666
O[C@@H]1C[C@@H](c2nnc3n2CCN(Cc2ccccc2)C3)N(Cc2cccnc2)C1: 563
Cn1ncc2c(N3CCSCC3)nc(C(=O)Nc3ccccc3)nc21: 819
COCCN1C(=O)CCc2cc(NC(=O)CC3CCCCC3)ccc21: 814
Cc1nnc(N2CCCC(C(=O)N(C)Cc3ccccc3)C2)c2nn(-c3ccc(Cl)cc3)c(C)c12 (stereo not given): 795
NC(=O)COC1CCC12CCN(C(=O)C1CCCCCC1)CC2 (stereo not given): 740
COc1ccc(S(=O)(=O)N2CCN(CCc3cn(C)c4ncccc34)CC2)cc1Cl: 654

====

Test: gradient 5% acetonitrile 3 min, to 50% in 2 min, to 85% in 15 min, held 3 min, 100 µL/min
Settings: column: Zorbax Extend-C18 2.1 x 50 mm; eluents: water / acetonitrile, 0.1% formic acid
RP-LC retention time listing for selected molecules.
measured-attribute: RP-LC retention time (s)

COc1ccc(Cn2c(=O)c3sccc3n(Cc3nc(-c4ccc(F)c(Cl)c4)no3)c2=O)cc1: 1190
O=C(CC1=CCCCC1)N1CC(F)(F)C[C@H]1c1nc(C2CC2)no1: 1000
O=C(NCc1ccco1)c1ccccc1-c1nc(-c2ccccc2)no1: 888
CCc1ccccc1N1C(=O)CN(S(=O)(=O)CC)CC1(C)C(=O)NCc1ccc(F)cc1 (centres undefined): 892
CCOc1cc(=O)n2c(c1C(=O)Nc1cc(Cl)c(OC)cc1OC)CCCC2: 758
Cc1cccc(NC(=O)N2CC(F)(F)C[C@H]2CN2CCCC2)c1C: 647
CCc1nncn1C1CCN(S(=O)(=O)c2ccc(C)c(Cl)c2)CC1: 754
CCOc1ccc(C(=O)NCC(=O)Nc2nc3ccccc3[nH]2)cc1OCC: 640
Cc1cc(C)c(NC(=O)Cn2cccc(-c3nc(-c4ccc(Br)cc4)no3)c2=O)c(C)c1: 1030

====

Assay: gradient 5% acetonitrile 3 min, to 50% in 2 min, to 85% in 15 min, held 3 min, 100 µL/min
Conditions: column: Zorbax Extend-C18 2.1 x 50 mm; eluents: water / acetonitrile, 0.1% formic acid
The following compounds are listed with their measured RP-LC retention time values.
measured-attribute: RP-LC retention time (s)

COc1ccc(CN2CCN(C(=O)C3=Cc4ccccc4OC3)CC2)c(OC)c1OC: 679
C[C@H]1CN(C(=O)Nc2ccc3c(c2)CCC3)C[C@@H]1c1nc(-c2ccncc2)no1: 888
CCN1c2ccc(C)cc2C(=O)NC12CCN(C(=O)c1ccc(OC)cc1OC)CC2: 774
CCc1ccccc1NS(=O)(=O)c1cc(-c2[nH]ncc2C(=O)N(C)C)oc1C: 729
CCNC(=O)C1CCCN(c2nc3ncn(CC(=O)NC4CCCCC4)c(=O)c3s2)C1 (stereo not given): 658
COc1cccc(C(=O)c2oc3ccccc3c2NC(=O)c2ccccc2[N+](=O)[O-])c1: 1080
O=S(=O)(Nc1ccc2c(c1)OCCO2)c1ccc(-c2nnc(C3CCC3)o2)o1: 842
Cc1ccc2c(c1)N(S(C)(=O)=O)CCC(C(=O)Nc1ccc(F)c(F)c1)O2 (stereo not given): 960
O=C1[C@H]2CN(Cc3ccc(Cl)cc3)C[C@H]2C(=O)N1CCc1ccccc1: 749
Cc1cnc(C2CC2)n1CCNS(=O)(=O)Cc1ccccc1: 634
Cc1ccccc1-c1noc(CCc2nnc3ccc(N4CCN(c5ccccn5)CC4)nn23)n1: 647
CCNC(=O)c1[nH]c2ccccc2c1N1CCCC1=O: 657
COc1ccc(OC)c(NC(=O)N(C)CCc2noc(-c3ccccc3)n2)c1: 918
COCc1cn(C2CN(C(=O)Cc3c[nH]c4ccccc34)C2)nn1: 634
Nc1ccc2nc3ccc(=O)cc-3n(-c3ccccc3)c2c1: 614
CN(C)C1CCCN(Cc2c(F)cccc2Cl)C1=O (stereo not given): 604
Cc1nn(C)c(C)c1S(=O)(=O)N1CCC(c2noc(-c3ccccc3)n2)C1 (stereo not given): 856
CC(C)NC(=O)c1nc(-c2ccnc(N3CCOCC3)c2)no1: 671
CCN1C(=O)c2cccnc2Sc2cc(CNC(=O)c3ccc(C#N)cc3F)ccc21: 760
Cc1cc(C(=O)N2CCCCC2c2nncn2-c2ccccc2)nn1C (stereo not given): 647

====

Assay: gradient 5% acetonitrile 3 min, to 50% in 2 min, to 85% in 15 min, held 3 min, 100 µL/min
Conditions: column: Zorbax Extend-C18 2.1 x 50 mm; eluents: water / acetonitrile, 0.1% formic acid
The entries below come with measured RP-LC retention time values attached.
measured-attribute: RP-LC retention time (s)

O=S(=O)(NC1CCCCCC1)c1cc(-c2cc(C(F)(F)F)on2)cs1: 1200
COC(=O)c1cc(C2CC2)nc2c1c(=O)n(Cc1ccc(C)cc1)c(=O)n2C: 1160
COc1ccc(N2CCN(c3ncc(C(=O)O)c(C)n3)CC2)cc1: 713
CCN(CC)C(=O)c1ccc2oc(CN3CCN(C(=O)NCC(C)C)CC3)nc2c1: 624
Cc1c(-c2cccc(NC(=O)c3cccs3)c2)nc2ncccn12: 638
CCC(=O)NCc1nc2c(n1C)CN(S(=O)(=O)c1c(C)c(C)cc(C)c1C)CC2: 556
CN(C)c1cccc(-c2nc(-c3cn(-c4ccc(F)cc4)nn3)no2)c1: 1100
CCOc1ccc2nc(C(=O)NCc3ccccc3Br)cn2n1: 947
COc1ccc(C(=O)N2C[C@@H]3C[C@H]2C[C@@H]3NC(=O)c2cccnc2)cc1F: 618
